- Tested on: UACC-257
- measurementNotes: NCI tumour cell line growth inhibition, 48 h
The source made the active and inactive calls. Cut-off read from the data, not from the text of the source: active = GI50 up to about 1.1 µM and inactive = higher.
Please go through the items and note down their GI50.

Examples with their reported GI50 follow.
>  <molecule>
COc1ccc(-c2c(C#N)c(N)nc3c2CCS(=O)(=O)c2ccccc2-3)cc1

>  <system>
UACC-257

>  <reportedMeasurement>
> 100 µM (inactive)

$$$$
>  <molecule>
c1nc2nc[nH]c(SSc3[nH]cnc4ncnc3-4)c-2n1

>  <system>
UACC-257

>  <reportedMeasurement>
2.63 µM (inactive)

$$$$

Field: GI50. Fill in for each record below.
1. CCOC(=O)c1nnsc1N/N=C\c1ccc([N+](=O)[O-])cc1
2. O=c1[nH]nc(Cc2ccccc2)n1/N=C/c1cccnc1
3. FC(F)(F)c1ccc2c(c1)nc(Cc1ccccc1)n2C[C@@H]1CCCN2CCCCC12 (stereo not given in full)
4. O=c1c(O)c(-c2ccc(O)c(O)c2)oc2cc(O)cc(O)c12
5. O=C(O)c1cccc(/N=N/c2c(S(=O)(=O)O)ccc3c2C(=O)c2ccccc2C3=O)c1O
6. Cc1ccc(/C=C2\N=C(N3CCCCC3)NC2=O)cc1

Result:
> 100 µM (inactive)
> 100 µM (inactive)
14.7 µM (inactive)
> 100 µM (inactive)
> 100 µM (inactive)
> 100 µM (inactive)

---

- System: A549
- measurementNotes: NCI tumour cell line growth inhibition, 48 h
Activity calls are given as the source filed them. Rule as the data show it: active = GI50 up to about 1.1 µM and inactive = higher.
Please go through the items and note down their GI50.

>  <molecule>
O=C1C=C(Nc2ccccc2C(=O)CC(=O)C(=O)Nc2ccc(Cl)cc2)c2ccccc2C1=O

>  <GI50>
14.4 µM (inactive)

$$$$
>  <molecule>
CCOC(=O)C1=CN/C(=C(/C)C(=O)OC)SC1C(=O)OCC (stereo unspecified)

>  <GI50>
> 100 µM (inactive)

$$$$
>  <molecule>
C[C@@H]1CC[C@@]2(C)OC(c3ccccc3)[C@H](CO)N2C1=O (stereo partly specified)

>  <GI50>
> 100 µM (inactive)

$$$$
>  <molecule>
O=C1CCC2CCc3cccc4oc1c2c34 (stereo unspecified)

>  <GI50>
> 100 µM (inactive)

$$$$

Field: GI50. Fill in for each record below.
1. c1ccc2c(c1)CCc1[nH]c3c(c1-2)-c1ccccc1CC3
2. O=C1NC2c3c(I)sc(I)c3C(O)C2O1 (stereo unspecified)

Result:
["77.1 µM (inactive)", "> 100 µM (inactive)"]

---

- Tested on: HCC 2998
- measurementNotes: NCI tumour cell line growth inhibition, 48 h
Active and inactive are the calls of the source. Rule as the data show it: active = GI50 up to about 1.1 µM and inactive = higher.
Please go through the items and note down their GI50.

Field: GI50. Fill in for each record below.
1. COc1ccc(/C=C/NC=O)cc1
2. COc1ccc(N2C(=O)C3c4[nH]c5ccccc5c4C4CCCCC4C3C2=O)cc1 (stereo not given)
3. C=C1C(=O)O[C@@H]2[C@H]1C[C@@H](O)[C@H](C)[C@@](O)(C(=O)/C=C/C)[C@H]2OC(=O)C(C)CC (stereo not given in full)
4. CCOP(=O)(OCC)[C@]12C[C@@H](C)C=C[C@H]1COC2=O
5. CC(C)(Br)C(Br)CCC(C)(Br)C(Br)CO (stereo not given)

Result:
> 100 µM (inactive)
18.3 µM (inactive)
14.5 µM (inactive)
> 100 µM (inactive)
> 10 µM (inactive)
